Please provide measured RI (Resistance Index) = IC50 Dd2/IC50 D10 for the entries that follow.
# Test system: chloroquine-resistant (CQR) strain of P. falciparum (Dd2)
# assay.summary: in vitro antiplasmodial activity, chloroquine-resistant strain Dd2
# Assay type: cell-based, Plasmodium falciparum
# experimental.context: ratio Dd2/D10
One number for each entry.

compound="COc1ccc(C(OC)C(CO)NCC(C)C)cc1 (racemic)" result_number=0.7
compound="OCC(NCc1ccccc1)C(O)c1ccccc1Cl (racemic)" result_number=0.6
compound="OCC(NCc1ccccc1)C(O)c1ccc(Cl)cc1 (stereo not drawn)" result_number=0.3

Would you mind listing RI (Resistance Index) = IC50 Dd2/IC50 D10 for each of the following compounds?
1. CN(C)CC(Cn1cc(-c2ccccc2)nn1)NCc1ccccc1Cl (stereo not drawn) [Compound 16f]
2. [N-]=[N+]=NCC1CN1Cc1ccccc1 (stereo not drawn) [Compound 14a, 2-Azidomethyl-1-(phenylmethyl)aziridine]
3. c1ccc(CN2CC2Cn2cc(-c3ccccc3)nn2)cc1 (stereo not drawn) [Compound 15a]

OUT:
1: 1.2; 2: 2; 3: 3.1

Would you mind listing RI (Resistance Index) = IC50 Dd2/IC50 D10 for each of the following compounds?
1. CCN(CC)CC(Cn1cc(-c2ccccc2)nn1)NCc1ccc(Cl)cc1 (stereo not drawn) [Compound 16b]
2. CCN(CC)CC(Cn1cc(-c2ccccc2)nn1)NCc1ccccc1 (stereo not drawn) [Compound 16a]
3. CCCNC(CO)C(OC)c1ccccc1F (racemic)

OUT:
6.8
10.5
0.6
